We begin with a simple list: items and their reported abundance fitness.
B1: Cytoplasmic polyadenylation element-binding protein 2, residues 513 to 575; numbered along this chain, Q7Z5Q1 (parent)
chain: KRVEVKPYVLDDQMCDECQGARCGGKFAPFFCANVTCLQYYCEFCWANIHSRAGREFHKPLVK

Variants of: B1
run.description: abundance fitness (aPCA) (normalised: wild type 0, dead -1); higher = more abundant; growth selection in yeast, the domain comes from the species named
condition.description: Homo sapiens

item.sequence: NRVEVKPYVLDDQMCDECQGARCGGKFAPFFCANVTCLQYYCEFCWANIHSRAGREFHKPLVK [K1N]
abundance fitness: 0.143
--
item.sequence: KRVEVKPYVLDDQMCDECQGARCGGKFAPFFCANVTCLQYYCEFCLANIHSRAGREFHKPLVK [W46L]
abundance fitness: -0.335
--
item.sequence: KRVEVKPYVLDDQMCDECQGARCGGKFAPFFCANVTCLQYYCESCWANIHSRAGREFHKPLVK [F44S]
abundance fitness: -0.012
--
item.sequence: KEVEVKPYVLDDQMCDECQGARCGGKFAPFFCANVTCLQYYCEFCWANIHSRAGREFHKPLVK [R2E]
abundance fitness: 0.067
--
item.sequence: KRVEVHPYVLDDQMCDECQGARCGGKFAPFFCANVTCLQYYCEFCWANIHSRAGREFHKPLVK [K6H]
abundance fitness: -0.225
--
item.sequence: KRVEVKPYVLDDQMCDECQGARCGGKFAPFFCANVTCLQYYCEFCWANIHWRAGREFHKPLVK [S51W]
abundance fitness: -0.267
--
item.sequence: KRVEVKPYVLDDQMCDECQGARCIGKFAPFFCANVTCLQYYCEFCWANIHSRAGREFHKPLVK [G24I]
abundance fitness: -0.418
--
item.sequence: KRVEVKPYVLDDQMCDERQGARCGGKFAPFFCANVTCLQYYCEFCWANIHSRAGREFHKPLVK [C18R]
abundance fitness: -0.641
--
item.sequence: KRVEVKPYVLDDQMCDECQGARCGGKFAPFFCANVTCLQYYCEFCWANIHSRAGREFHKPLAK [V62A]
abundance fitness: -0.193
--
item.sequence: KRVEVKPYVLDDQMMDECQGARCGGKFAPFFCANVTCLQYYCEFCWANIHSRAGREFHKPLVK [C15M]
abundance fitness: -0.507
--
item.sequence: KRVEVKPYVLDDQMCDECQYARCGGKFAPFFCANVTCLQYYCEFCWANIHSRAGREFHKPLVK [G20Y]
abundance fitness: -0.598
--
item.sequence: KRVEVKPYVLDDQMCDECNGARCGGKFAPFFCANVTCLQYYCEFCWANIHSRAGREFHKPLVK [Q19N]
abundance fitness: -0.446
--
item.sequence: KRVEVKPYVLDDQMCDECQGARCNGKFAPFFCANVTCLQYYCEFCWANIHSRAGREFHKPLVK [G24N]
abundance fitness: 0.172
--
item.sequence: KRVEVKPYVLDLQMCDECQGARCGGKFAPFFCANVTCLQYYCEFCWANIHSRAGREFHKPLVK [D12L]
abundance fitness: -0.288
--
item.sequence: KRVEVKPYVLDDQMCDECQGSRCGGKFAPFFCANVTCLQYYCEFCWANIHSRAGREFHKPLVK [A21S]
abundance fitness: -0.018
--
item.sequence: KRVEVKPIVLDDQMCDECQGARCGGKFAPFFCANVTCLQYYCEFCWANIHSRAGREFHKPLVK [Y8I]
abundance fitness: -0.026
